- experimental system: Gal(b1-4)Glc6S
- assay explanation: glycan array binding signal (z-score within array); higher = stronger binding
- condition parameters: glycan notation: IUPAC condensed, linker removed
Many of the other results were omitted from the sample, so the strongest signals are more common in it than they were.
Record form. Attribute: glycan array binding signal (z-score). Fill in for each entry.
Answer field: number only, no words.

Quick check: glycan array binding signal (z-score) of SRS2 (Toxoplasma gondii), O15695 (protein) MATRASLARQKTGAACLAVLTASPSVVAAKPWKRWVGVSVILASAFAVGVSAGPPYRYEPEKFTCRPKKGILSQWVSLLYQVQHNITFACEEATPVPTTLISEEHGLMVCAENMTPEECEANPAPLSAFLPGATKEWVTGDSVLTGLKISVPESQYPANAKSFRVGCRHNTKTGNTCMLTIHVEPRDPAVERQEARCSYTENSTLPKIFVTKDSNTMTLACGPHGAPMPESYTENYCSTPDTCDEKPFTSVIPGYLSKWFFGDPKSPLGARVRIPPEQIPSSPQINYFGCTGPTEGEGPKYNCTVPVPLGGGDPSEGSRPGGGSGGGKRGGGQGGGGSLAGFDFRQGSARHSLPSRMALSASALLAMTALAY ?
-0.35

Would you kindly repeat that for FaeGad (Escherichia coli) (protein) WMTGDFNGSVDIGGSITADDYRQKWEWEVGTGLNGFGSVLNDLTNGGTKLTITVTGNKPILLGRTKEAFATPVTSGVDGIPHIAFTDYEGASVELRNPDGETEKGLTYFVLPMKNAEGTKVGSVKVNASYAGALGRGGVTSADGELMSLFAEGSHAIFYGGLPTNVKNSELKGGSAAAARTELFGSLSKNDILGQIQRVNANITSLVNVPGSFNENMAYTDGSVVSVAYALGIANGQTIEATFNQAVTTSTQWSAPLNVAITYY ?
0.601
